- Test system: NCI-H226
- protocol.summary: Cytotoxicity against human NCI-H226 cells after 48 hrs by SRB assay
- Format: functional
- setup.conditions: NCI-H226, 48 h, read-out: LC50 (the source's name)

input.smiles	CC50
CN1C(=O)C(=Cc2cn(Cc3ccc(Cl)cc3)c3ccccc23)C(=O)N(C)C1=O	> 100 µM
Cc1ccc(Cn2cc(C=C3C(=O)N(C)C(=O)N(C)C3=O)c3ccccc32)cc1	> 100 µM
COc1ccc(Cn2cc(C=C3C(=O)N(C)C(=O)N(C)C3=O)c3ccccc32)cc1	53.9 µM
CN1C(=O)C(=Cc2cn(Cc3ccc(F)cc3)c3ccccc23)C(=O)N(C)C1=O	> 100 µM

* * *

- System: OVCAR-8
- protocol.summary: Cytotoxicity against human OVCAR8 cells after 48 hrs by SRB assay
- Format: functional
- setup.conditions: OVCAR-8, 48 h

input.smiles	comparative.sign	GI50 [µM]
COc1ccc(Cn2cc(C=C3C(=O)N(C)C(=O)N(C)C3=O)c3ccccc32)cc1	=	13.4
CN1C(=O)C(=Cc2cn(Cc3ccc(Cl)cc3)c3ccccc23)C(=O)N(C)C1=O	=	21.3
Cc1ccc(Cn2cc(C=C3C(=O)N(C)C(=O)N(C)C3=O)c3ccccc32)cc1	>	100
CN1C(=O)C(=Cc2cn(Cc3ccc(F)cc3)c3ccccc23)C(=O)N(C)C1=O	>	100

* * *

A collection of compounds and their measured GI50
- Test system: LOX IMVI
- protocol.summary: Cytotoxicity against human LOXIMVI cells after 48 hrs by SRB assay
- Type: functional

input.smiles	comparative.sign	GI50 (µM)
CN1C(=O)C(=Cc2cn(Cc3ccc(Cl)cc3)c3ccccc23)C(=O)N(C)C1=O	=	17.3
CN1C(=O)C(=Cc2cn(Cc3ccc(F)cc3)c3ccccc23)C(=O)N(C)C1=O	>	100
COc1ccc(Cn2cc(C=C3C(=O)N(C)C(=O)N(C)C3=O)c3ccccc32)cc1	=	5.45
Cc1ccc(Cn2cc(C=C3C(=O)N(C)C(=O)N(C)C3=O)c3ccccc32)cc1	=	27.8

* * *

A collection of compounds and their measured GI50
- System: MDA-MB-468
- protocol.summary: Cytotoxicity against human MDA-MB-468 cells after 48 hrs by SRB assay
- Type: functional
- setup.conditions: MDA-MB-468, 48 h

input.smiles	result.units	GI50
CN1C(=O)C(=Cc2cn(Cc3ccc(Cl)cc3)c3ccccc23)C(=O)N(C)C1=O	nM	60
CN1C(=O)C(=Cc2cn(Cc3ccc(F)cc3)c3ccccc23)C(=O)N(C)C1=O	nM	30
COc1ccc(Cn2cc(C=C3C(=O)N(C)C(=O)N(C)C3=O)c3ccccc32)cc1	nM	40
Cc1ccc(Cn2cc(C=C3C(=O)N(C)C(=O)N(C)C3=O)c3ccccc32)cc1	nM	30

* * *

- System: SK-MEL-2
- protocol.summary: Cytotoxicity against human SK-MEL-2 cells after 48 hrs by SRB assay
- Type: functional
- setup.conditions: SK-MEL-2, 48 h
A collection of molecules and their measured GI50

input.smiles	GI50 (µM)
COc1ccc(Cn2cc(C=C3C(=O)N(C)C(=O)N(C)C3=O)c3ccccc32)cc1	2.78
CN1C(=O)C(=Cc2cn(Cc3ccc(Cl)cc3)c3ccccc23)C(=O)N(C)C1=O	2.84
Cc1ccc(Cn2cc(C=C3C(=O)N(C)C(=O)N(C)C3=O)c3ccccc32)cc1	3.36
CN1C(=O)C(=Cc2cn(Cc3ccc(F)cc3)c3ccccc23)C(=O)N(C)C1=O	6.35
